The entries below come with measured IC50 values attached.
targetEntity: recombinant human NF-kappaB-inducing kinase (NIK/MAP3K14) (Homo sapiens)
Sequence (Q99558 whole entry): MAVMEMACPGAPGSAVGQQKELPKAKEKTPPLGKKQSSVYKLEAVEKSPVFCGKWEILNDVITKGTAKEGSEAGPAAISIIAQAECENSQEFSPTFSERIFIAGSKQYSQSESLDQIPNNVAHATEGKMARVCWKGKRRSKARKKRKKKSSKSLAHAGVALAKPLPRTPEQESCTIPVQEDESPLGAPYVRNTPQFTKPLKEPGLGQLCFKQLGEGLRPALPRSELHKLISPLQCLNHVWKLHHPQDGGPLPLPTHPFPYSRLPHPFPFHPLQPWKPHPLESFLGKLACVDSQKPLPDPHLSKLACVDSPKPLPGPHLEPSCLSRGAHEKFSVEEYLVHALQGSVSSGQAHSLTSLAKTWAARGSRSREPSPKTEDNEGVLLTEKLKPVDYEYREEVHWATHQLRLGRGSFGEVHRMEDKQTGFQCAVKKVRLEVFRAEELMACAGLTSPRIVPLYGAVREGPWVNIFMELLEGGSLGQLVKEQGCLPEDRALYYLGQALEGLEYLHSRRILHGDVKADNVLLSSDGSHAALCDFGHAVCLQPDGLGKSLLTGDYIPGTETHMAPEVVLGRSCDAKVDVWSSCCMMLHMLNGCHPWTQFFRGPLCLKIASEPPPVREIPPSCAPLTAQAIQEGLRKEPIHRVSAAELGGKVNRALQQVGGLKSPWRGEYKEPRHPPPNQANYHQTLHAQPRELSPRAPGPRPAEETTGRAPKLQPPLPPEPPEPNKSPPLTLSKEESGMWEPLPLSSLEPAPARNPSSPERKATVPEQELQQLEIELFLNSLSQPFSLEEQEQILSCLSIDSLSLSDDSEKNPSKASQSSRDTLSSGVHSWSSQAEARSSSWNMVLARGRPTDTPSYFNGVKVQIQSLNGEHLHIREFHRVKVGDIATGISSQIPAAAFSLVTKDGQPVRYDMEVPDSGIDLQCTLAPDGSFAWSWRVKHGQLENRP
assayProtocol: Inhibition of auto-phosphorylation of recombinant human NIK/MAP3K14 activity (AlphaScreen)
measurementSetup: GST-tagged NIK/MAP3K14 1 nM, 5 μM ATP, 2 h at 25° C.; average of values obtained
Protocol: Inhibition of Auto-Phosphorylation of Recombinant Human NF-kappaB-Inducing Kinase (NIK/MAP3K14) Activity (AlphaScreen®) NIK/MAP3K14 auto-phosphorylation activity was measured using the AlphaScreen® (αscreen) format (Perkin Elmer). […] Protein A Acceptor and Glutathione-Donor beads were added before reading using an EnVision Multilabel Plate Reader (Perkin Elmer). […] IC50's were determined by fitting a sigmoidal curve to % inhibition of control versus Log10 compound concentration.

Take a look at these entries with their results.
- compound: "CN1C(=O)[C@@](O)(c2cccc(-c3csc(-c4c[nH]c5ncccc45)n3)c2)c2ncccc21 [Example 91]"
  result: "> 500 nM"
- compound: "O[C@]1(c2cccc(-c3csc(-c4c[nH]c5ncncc45)n3)c2)CCn2ccnc21 [Example 21]"
  result: "100 to 500 nM"
- compound: "O[C@H]1C[C@@](O)(c2cccc(-c3csc(-c4c[nH]c5ncccc45)n3)c2)c2ncccc21 (single isomer, unassigned) [Example 103]"
  result: "> 500 nM"
- compound: "CS(=O)(=O)c1cnc2[nH]cc(-c3nc(-c4cccc([C@]5(O)CCn6ccnc65)c4)cs3)c2c1 [Example 28]"
  result: "≤ 100 nM"
- compound: "O[C@@]1(c2cccc(-c3csc(-c4c[nH]c5ncccc45)n3)c2)CCc2scnc21 (single isomer, unassigned) [Example 32]"
  result: "≤ 100 nM"
- compound: "O[C@@]1(c2cccc(-c3csc(-c4c[nH]c5ncncc45)n3)c2)CCn2ccnc21 [Example 20]"
  result: "≤ 100 nM"

Here is another compound to look at.
[in] Returns the measured IC50 for the input compound. Input: CN1CC[C@](O)(c2cccc(-c3csc(-c4c[nH]c5ncccc45)n3)c2)C1=O (single isomer, unassigned) [Example 48]
[out] > 500 nM
